Data provenance: PubChem BioAssay AID2060483

- Test system: K24384-001-R-PDC complex spheroids, viability
- METHOD NOTES: Anticancer human tumor K24384-001-R-PDC patient-derived pancreatic adenocarcinoma cell line growth inhibition [GQUAD]
- TEST CONDITIONS: second compound 0.0316 µM; first compound 0.000999 µM; stronger effect = lower value
- Excerpt: DNA G-quadruplex Stabilizer Agents in Combinations in Complex Spheroids A high-throughput screen of multi-cell type tumor spheroids was designed to identify active combinations of DNA G-quadruplex stabilizer agents and targeted small molecules. […] Compounds. […] If the clinical Cmax for an agent had not been determined, the highest concentration tested was 10 microM. […]
Reported viability, T/C values are given for each entry in this list.

CCc1c2c(nc3ccc(O)cc13)-c1cc3c(c(=O)n1C2)COC(=O)[C@]3(O)CC + Cc1[nH]c2ccc(F)cc2c1-c1nc2c3cccnc3c3ncccc3c2[nH]1 :: 96.3%
CC[C@@]1(O)C(=O)OCc2c1cc1n(c2=O)Cc2cc3c(CN(C)C)c(O)ccc3nc2-1 + Cc1[nH]c2ccc(F)cc2c1-c1nc2c3cccnc3c3ncccc3c2[nH]1 :: 102%

**Q:** Field request: viability, T/C | item: CCc1c2c(nc3ccc(O)cc13)-c1cc3c(c(=O)n1C2)COC(=O)[C@]3(O)CC + CN(C)c1ccc(Nc2c3ccc(NC(=O)CCN4CCCC4)cc3nc3cc(NC(=O)CCN4CCCC4)ccc23)cc1
**A:** 80.2%

* * *

- Test system: K24384-001-R-PDC complex spheroids, viability
- METHOD NOTES: Anticancer human tumor K24384-001-R-PDC cell line growth inhibition [GQUAD];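 further: spheroids exposed to compounds for seven days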
- TEST CONDITIONS: second compound 1 µM; first compound 3.16 µM; stronger effect = lower value
ENDPOINT: viability, T/C (%)
Output spec: scalar in %, unitless text.

Example entries and their recorded answers appear below.
Nc1ccn(C2OC(CO)C(O)C2(F)F)c(=O)n1 (stereo not given) + Cc1cnc(CNC(=O)c2c(=O)c3ccc(N4CCCN(C)CC4)nc3n3c2sc2ccccc23)cn1 :: 31.8
C=CCn1c(=O)c2cnc(Nc3ccc(N4CCN(C)CC4)cc3)nc2n1-c1cccc(C(C)(C)O)n1 + Cc1cnc(CNC(=O)c2c(=O)c3ccc(N4CCCN(C)CC4)nc3n3c2sc2ccccc23)cn1 :: 27.1
CC(=O)O[C@H]1C(=O)[C@@]2(C)[C@H]([C@H](OC(=O)c3ccccc3)[C@]3(O)C[C@H](OC(=O)[C@H](O)[C@@H](NC(=O)c4ccccc4)c4ccccc4)C(C)=C1C3(C)C)[C@]1(OC(C)=O)CO[C@@H]1C[C@@H]2O + Cc1cnc(CNC(=O)c2c(=O)c3ccc(N4CCCN(C)CC4)nc3n3c2sc2ccccc23)cn1 :: 41.9
Cc1cccc(N(C)C(=O)C2C(O)CCN2c2nc(C)cc(C(F)(F)F)c2C#N)c1 (stereo not given) + CN(C)c1ccc(Nc2c3ccc(NC(=O)CCN4CCCC4)cc3nc3cc(NC(=O)CCN4CCCC4)ccc23)cc1 :: 91.8
CC1COCCN1c1cc(C2(O)CC3CCC(C2)O3)c2cnn(-c3ccn[nH]3)c2n1 (stereo not given) + Cc1cnc(CNC(=O)c2c(=O)c3ccc(N4CCCN(C)CC4)nc3n3c2sc2ccccc23)cn1 :: 18.1
C=CC(=O)N1CCN(c2nc(=O)n(-c3c(C)ccnc3C(C)C)c3nc(-c4c(O)cccc4F)c(F)cc23)C(C)C1 (stereo not given) + CN(C)c1ccc(Nc2c3ccc(NC(=O)CCN4CCCC4)cc3nc3cc(NC(=O)CCN4CCCC4)ccc23)cc1 :: 147
COc1ncnc(C2CC2)c1-c1ncc2cnn(Cc3ccc(-c4nc(C(F)(F)F)cn4C(C)C)cc3)c2n1 + CN(C)c1ccc(Nc2c3ccc(NC(=O)CCN4CCCC4)cc3nc3cc(NC(=O)CCN4CCCC4)ccc23)cc1 :: 73.7
CCCS(=O)(=O)Nc1ccc(F)c(C(=O)c2c[nH]c3ncc(-c4ccc(Cl)cc4)cc23)c1F + Cc1[nH]c2ccc(F)cc2c1-c1nc2c3cccnc3c3ncccc3c2[nH]1 :: 128
CC1COCCN1c1cc(C2(S(C)(=N)=O)CC2)nc(-c2ccnc3[nH]ccc23)n1 (stereo not given) + Cc1[nH]c2ccc(F)cc2c1-c1nc2c3cccnc3c3ncccc3c2[nH]1 :: 41.5
O=C(c1cc(Cc2n[nH]c(=O)c3ccccc23)ccc1F)N1CCN(C(=O)C2CC2)CC1 + Cc1[nH]c2ccc(F)cc2c1-c1nc2c3cccnc3c3ncccc3c2[nH]1 :: 89

**Q:** Could you share what viability, T/C was measured for COc1ccc([C@@H](O)c2cc(-c3ncnc4cc(N5CCOCC5)ccc34)c(F)cc2Cl)nn1 + Cc1cnc(CNC(=O)c2c(=O)c3ccc(N4CCCN(C)CC4)nc3n3c2sc2ccccc23)cn1 , tested on K24384-001-R-PDC complex spheroids, viability?
**A:** 21.7

**Q:** Let us now turn to O=C(NO)c1cnc(N2CCN(S(=O)(=O)c3ccc4ccccc4c3)CC2)nc1 + Cc1cnc(CNC(=O)c2c(=O)c3ccc(N4CCCN(C)CC4)nc3n3c2sc2ccccc23)cn1
**A:** 0.07

**Q:** Let us now turn to CC1COCCN1c1cc(C2(O)CC3CCC(C2)O3)c2cnn(-c3ccn[nH]3)c2n1 (stereo not given) + CN(C)c1ccc(Nc2c3ccc(NC(=O)CCN4CCCC4)cc3nc3cc(NC(=O)CCN4CCCC4)ccc23)cc1
**A:** 27.3

**Q:** Let us now turn to CC(C)n1c(=O)n(C)c2cnc3cc(F)c(-c4ccc(OCCCN5CCCCC5)nc4)cc3c21 + CN(C)c1ccc(Nc2c3ccc(NC(=O)CCN4CCCC4)cc3nc3cc(NC(=O)CCN4CCCC4)ccc23)cc1
**A:** 109

**Q:** Let us now turn to COc1cccc2c1C(=O)c1c(O)c3c(c(O)c1C2=O)CC(O)(C(=O)CO)CC3OC1CC(N)C(O)C(C)O1 (stereo not given) + Cc1cnc(CNC(=O)c2c(=O)c3ccc(N4CCCN(C)CC4)nc3n3c2sc2ccccc23)cn1
**A:** 2.42

**Q:** Let us now turn to CC1COCCN1c1cc(C2(S(C)(=N)=O)CC2)nc(-c2ccnc3[nH]ccc23)n1 (stereo not given) + Cc1cnc(CNC(=O)c2c(=O)c3ccc(N4CCCN(C)CC4)nc3n3c2sc2ccccc23)cn1
**A:** 43.7

**Q:** Let us now turn to COc1cc(C2c3cc4c(cc3C(OC3OC5COC(C)OC5C(O)C3O)C3COC(=O)C23)OCO4)cc(OC)c1O (stereo not given) + Cc1cnc(CNC(=O)c2c(=O)c3ccc(N4CCCN(C)CC4)nc3n3c2sc2ccccc23)cn1
**A:** 43.4

**Q:** Let us now turn to O=C(c1cc(Cc2n[nH]c(=O)c3ccccc23)ccc1F)N1CCN(C(=O)C2CC2)CC1 + CN(C)c1ccc(Nc2c3ccc(NC(=O)CCN4CCCC4)cc3nc3cc(NC(=O)CCN4CCCC4)ccc23)cc1
**A:** 92.9

**Q:** Let us now turn to COc1ncnc(C2CC2)c1-c1ncc2cnn(Cc3ccc(-c4nc(C(F)(F)F)cn4C(C)C)cc3)c2n1 + Cc1[nH]c2ccc(F)cc2c1-c1nc2c3cccnc3c3ncccc3c2[nH]1
**A:** 95.2

**Q:** Let us now turn to C#Cc1c(F)ccc2cc(O)cc(-c3ncc4c(N5CC6CCC(C5)N6)nc(OCC56CCCN5CC(F)C6)nc4c3F)c12 (stereo not given) + CN(C)c1ccc(Nc2c3ccc(NC(=O)CCN4CCCC4)cc3nc3cc(NC(=O)CCN4CCCC4)ccc23)cc1
**A:** 38.7

* * *

Reported IC50 values are given for each entry in this list.
- Tested on: K24384-001-R-PDC complex spheroids, viability
- METHOD NOTES: Anticancer human tumor K24384-001-R-PDC cell line growth inhibition [GQUAD];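 further: spheroids exposed to compounds for seven days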
- TEST CONDITIONS: curve of first compound; second compound 3.16 µM
- From the text: DNA G-quadruplex Stabilizer Agents in Combinations in Complex Spheroids A high-throughput screen of multi-cell type tumor spheroids was designed to identify active combinations of DNA G-quadruplex stabilizer agents and targeted small molecules. […] Compounds. […] If the clinical Cmax for an agent had not been determined, the highest concentration tested was 10 microM. […]
Output spec: scalar in nM, unitless text.

O=c1[nH]cc(F)c(=O)[nH]1 + Cc1[nH]c2ccc(F)cc2c1-c1nc2c3cccnc3c3ncccc3c2[nH]1 :: 479

**Q:** Field request: IC50 | item: CC(C)(O)C1CCC(Nc2ccc3ncc(-c4cccc(C(F)(F)F)c4)n3n2)CC1 (stereo not given) + CN(C)c1ccc(Nc2c3ccc(NC(=O)CCN4CCCC4)cc3nc3cc(NC(=O)CCN4CCCC4)ccc23)cc1
**A:** 1890

* * *

- Test system: K24384-001-R-PDC complex spheroids, viability
- METHOD NOTES: Anticancer human tumor K24384-001-R-PDC cell line growth inhibition [GQUAD];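 further: spheroids exposed to compounds for seven days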
- TEST CONDITIONS: second compound 1 µM; first compound 3.16 µM; stronger effect = lower value
Exam item: assign 1 to entries whose viability, T/C is below 40% and 0 to entries at or above 40%. Note that a value of exactly 40% receives 0.

Please review the entries below; each comes with its answer.
C=CCn1c(=O)c2cnc(Nc3ccc(N4CCN(C)CC4)cc3)nc2n1-c1cccc(C(C)(C)O)n1 + Cc1[nH]c2ccc(F)cc2c1-c1nc2c3cccnc3c3ncccc3c2[nH]1 :: 1
COc1cc(C2c3cc4c(cc3C(OC3OC5COC(C)OC5C(O)C3O)C3COC(=O)C23)OCO4)cc(OC)c1O (stereo unspecified) + CN(C)c1ccc(Nc2c3ccc(NC(=O)CCN4CCCC4)cc3nc3cc(NC(=O)CCN4CCCC4)ccc23)cc1 :: 0
CC1COCCN1c1cc(-c2ccnn2C)c2ccnc(-c3ccn[nH]3)c2n1 (stereo unspecified) + Cc1cnc(CNC(=O)c2c(=O)c3ccc(N4CCCN(C)CC4)nc3n3c2sc2ccccc23)cn1 :: 1
O=c1[nH]cc(F)c(=O)[nH]1 + Cc1[nH]c2ccc(F)cc2c1-c1nc2c3cccnc3c3ncccc3c2[nH]1 :: 0
O=c1[nH]cc(F)c(=O)[nH]1 + CN(C)c1ccc(Nc2c3ccc(NC(=O)CCN4CCCC4)cc3nc3cc(NC(=O)CCN4CCCC4)ccc23)cc1 :: 1
CCCS(=O)(=O)Nc1ccc(F)c(C(=O)c2c[nH]c3ncc(-c4ccc(Cl)cc4)cc23)c1F + Cc1cnc(CNC(=O)c2c(=O)c3ccc(N4CCCN(C)CC4)nc3n3c2sc2ccccc23)cn1 :: 0
C#Cc1c(F)ccc2cc(O)cc(-c3ncc4c(N5CC6CCC(C5)N6)nc(OCC56CCCN5CC(F)C6)nc4c3F)c12 (stereo unspecified) + Cc1cnc(CNC(=O)c2c(=O)c3ccc(N4CCCN(C)CC4)nc3n3c2sc2ccccc23)cn1 :: 1
C#Cc1c(F)ccc2cc(O)cc(-c3ncc4c(N5CC6CCC(C5)N6)nc(OCC56CCCN5CC(F)C6)nc4c3F)c12 (stereo unspecified) + Cc1[nH]c2ccc(F)cc2c1-c1nc2c3cccnc3c3ncccc3c2[nH]1 :: 1

**Q:** Quick check: viability, T/C of COc1ccc([C@@H](O)c2cc(-c3ncnc4cc(N5CCOCC5)ccc34)c(F)cc2Cl)nn1 + Cc1[nH]c2ccc(F)cc2c1-c1nc2c3cccnc3c3ncccc3c2[nH]1 under 40%?
**A:** 0

**Q:** Let us now turn to O=C(NO)c1cnc(N2CCN(S(=O)(=O)c3ccc4ccccc4c3)CC2)nc1 + Cc1[nH]c2ccc(F)cc2c1-c1nc2c3cccnc3c3ncccc3c2[nH]1
**A:** 1
